All figures here come from a melting point compilation (Tetko et al.; mined from patent text by program, amines drawn as free bases though some values may be those of a salt).

// values below are reported melting point

Examples with answers:
O=C1NCCC[C@@H]1NS(=O)(=O)c1ccccc1C(F)(F)F
161 to 163 °C
COc1cc(C(=O)Nc2c(Cl)cncc2Cl)cc2c1oc1ccccc12
165 to 166 °C
CCCCCCCCCCCCc1cn(C(C(=O)O)c2ccccc2)cn1 (centres undefined)
110 to 118 °C
Cc1oc(-c2ccccc2)nc1CCC(=O)O
124 to 125 °C
Cc1c(Cl)cccc1-n1nc(C(N)=O)nc1-c1ccccc1
198 to 200 °C
CCS(=O)CCON=Cc1nn(-c2c(Cl)cc(C(F)(F)F)cc2Cl)c(N)c1S(C)=O (centres undefined)
144 to 148 °C

Input CC(NCC(O)CP(=O)(O)CC1CCCCC1)c1ccc(Cl)c(Cl)c1 (centres undefined) , output reported melting point.
173 to 178 °C

Quote melting point reported for "CCOCn1c(-c2ccc(Cl)cc2)c(C#N)c(Cl)c1C(F)(F)F" please.
104 °C
